- targetUnderTest: Glucocorticoid receptor (Homo sapiens) (UniProt P04150)
- Sequence (P04150 whole entry, looked up): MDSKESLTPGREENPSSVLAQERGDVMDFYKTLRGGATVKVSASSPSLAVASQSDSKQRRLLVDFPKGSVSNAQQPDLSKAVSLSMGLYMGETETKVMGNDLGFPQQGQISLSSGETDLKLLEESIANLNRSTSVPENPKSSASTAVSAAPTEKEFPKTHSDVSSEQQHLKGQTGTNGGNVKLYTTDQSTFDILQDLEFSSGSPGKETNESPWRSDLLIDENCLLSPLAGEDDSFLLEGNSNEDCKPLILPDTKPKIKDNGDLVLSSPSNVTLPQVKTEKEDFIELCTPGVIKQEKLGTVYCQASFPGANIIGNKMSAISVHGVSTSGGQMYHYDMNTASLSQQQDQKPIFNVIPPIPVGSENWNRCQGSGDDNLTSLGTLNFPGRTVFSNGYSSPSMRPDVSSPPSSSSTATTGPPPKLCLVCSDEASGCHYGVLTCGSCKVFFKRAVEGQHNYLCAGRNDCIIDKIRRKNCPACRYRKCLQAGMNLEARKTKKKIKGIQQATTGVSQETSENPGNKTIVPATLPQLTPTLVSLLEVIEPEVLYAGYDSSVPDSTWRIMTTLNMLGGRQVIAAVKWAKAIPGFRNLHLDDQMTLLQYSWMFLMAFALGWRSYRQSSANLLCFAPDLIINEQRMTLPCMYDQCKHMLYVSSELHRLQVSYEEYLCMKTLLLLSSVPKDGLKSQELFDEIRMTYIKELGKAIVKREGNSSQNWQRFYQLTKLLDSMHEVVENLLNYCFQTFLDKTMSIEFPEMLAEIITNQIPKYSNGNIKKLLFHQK
- protocolText: GR-EFC Redistribution (AID 451); further: potency means the concentration at half of the fitted maximal effect
- testContext: CHO-K1 GR-EFC translocation, beta-gal luminescence, 2 h
- Procedure: NIH Molecular Libraries Screening Centers Network [MLSCN] NIH Chemical Genomics Center [NCGC] The glucocorticoid receptor (GR) is a cytoplasmic receptor that belongs to the nuclear receptor family of ligand-dependent transcription factors. […] GR-translocation was measured beta-gal enzyme activity using the PathHunter Detection Kit containing cell membrane permeablizing reagent and beta-gal substrate (DiscoveRx, Fremont, CA). […] Read plate in luminescence mode in ViewLux plate reader (PerkinElmer) […]
Calls of active or inactive are those of the source. The call rests on the fitted dose curve.
In this section we review reported Potency values for a set of compounds.

- smilesStructure: "c1ccc(N2CC3(CCNCC3)C2)cc1"
  Potency: "> 46 µM (inactive)"
- smilesStructure: "N#Cc1ccc(CN2CC[C@@]3(CCCN(C(=O)Oc4ccccc4)C3)C2)cc1"
  Potency: "> 46 µM (inactive)"
- smilesStructure: "C=C[C@H]1CN2CC[C@@H]1C[C@H]2[C@@H](O)c1ccnc2ccccc12"
  Potency: "> 20.6 µM (inactive)"
- smilesStructure: "CC(C)CN1CCCC2(CCN(C(=O)Oc3ccccc3)CC2)C1"
  Potency: "> 46 µM (inactive)"
- smilesStructure: "c1ccc(CN2CCC3(CCNCC3)CC2)cc1"
  Potency: "> 46 µM (inactive)"
- smilesStructure: "c1ccc(N2CCC3(CCNCC3)CC2)nc1"
  Potency: "> 46 µM (inactive)"
- smilesStructure: "N#Cc1cccc(NC(=O)N2CC3(CCN(C(=O)Oc4ccccc4)CC3)C2)c1"
  Potency: "> 46 µM (inactive)"
- smilesStructure: "C(#CCN1CCCC1)CN1CCCC1"
  Potency: "> 20.6 µM (inactive)"
- smilesStructure: "Clc1ccccc1-c1cncnc1NCCc1cnc[nH]1"
  Potency: "> 46 µM (inactive)"
- smilesStructure: "O=C1NC(=S)NC(=O)C1=Cc1cccc2cc3ccccc3cc12"
  Potency: "> 9.22 µM (inactive)"
- smilesStructure: "CCN1C[C@]2(C)CC[C@H](OC)[C@@]34[C@@H]2[C@H](OC(C)=O)[C@]2(OCO[C@@]25C[C@@H](OC)[C@@H]2C[C@@]3(O)[C@H]5[C@@H]2OC)[C@H]14"
  Potency: "> 20.6 µM (inactive)"

###

- protocolText: Cell Viability qHTS for small molecule stabilizers of the endoplasmic reticulum resident proteome (AID 1508629);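 further: human SH-SY5Y neuroblastoma cells carrying the GLuc-SERCaMP reporter; compound exposure about 46 h in total before the viability read; on the % scale 0 is the no-effect control and ±100 the full control effect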
- testContext: cell viability counter-screen, 100 nM thapsigargin for final 4 h
Results filed as inconclusive are left out.
In this section we review reported max response values for a set of molecules.
endpoint: max response (%)

- smilesStructure: "c1cnc(N2CCC3(CCNCC3)CC2)nc1"
  endpoint: "max response"
  reportedValue: 1.49
- smilesStructure: "c1ccc(N2CC[C@@]3(CCCNC3)C2)cc1"
  endpoint: "max response"
  reportedValue: 3.77
- smilesStructure: "c1ccc(N2CCCC3(CCNCC3)C2)cc1"
  endpoint: "max response"
  reportedValue: -4.75
- smilesStructure: "c1cc(CN2CCCC3(CCNCC3)C2)ccn1"
  endpoint: "max response"
  reportedValue: 27.2

###

- protocolText: VSVG counterscreen qHTS to identify inhibitors of SARS-CoV-2 cell entry (AID 1645847); further: potency means the concentration at half of the fitted maximal effect; nearly all actives have a fitted effect of over 65% in size
- testContext: VSV-G pseudotyped particle entry, luciferase; series mostly up to 57.2 µM
Records with an inconclusive call do not appear. Activity calls are given as the source filed them. The call rests on the fitted dose curve.
In this section we review reported Potency values for a set of compounds.

- compound: "C/C(=C\\c1csc(C)n1)[C@@H]1C[C@@H]2O[C@]2(C)CCC[C@H](C)[C@H](O)[C@@H](C)C(=O)C(C)(C)[C@@H](O)CC(=O)N1"
  Potency: "152 nM (active)"
- compound: "O=C(Nc1cc(Oc2cc(F)c(NC(=O)C3(C(=O)Nc4ccc(F)cc4)CC3)cc2F)ccn1)C1CC1"
  Potency: "15200 nM (active)"
- compound: "CCNCCS(=O)(=O)NC[C@@]1(c2ccccc2)SC(NC(=O)C(C)(C)C)=NN1C(=O)C(C)(C)C"
  Potency: "54.1 nM (active)"
- compound: "CO[C@H]1CCC(O[C@H]2C[C@H]([C@]3(C)CC[C@]4(C[C@H](O)[C@@H](C)[C@@H]([C@@H](C)/C=C(\\C)C(=O)[C@H](C)C[C@H](C)C(=O)O)O4)O3)O[C@]3(O[C@@H]([C@H]4O[C@@](O)(CO)[C@H](C)C[C@@H]4C)C[C@@H]3C)[C@@H]2C)O[C@@H]1C (some centres not stated)"
  Potency: "607 nM (active)"
- compound: "COc1cc([C@@H]2c3cc4c(cc3C(O[C@@H]3O[C@@H]5CO[C@@H](c6cccs6)OC5[C@H](O)[C@H]3O)C3COC(=O)[C@@H]32)OCO4)cc(OC)c1O (some centres not stated)"
  Potency: "42.9 nM (active)"
- compound: "COc1ccc(N(C)c2nc(C)nc3ccccc23)cc1"
  Potency: "4820 nM (active)"

###

- protocolText: Vero-766 cells viability qHTS against the NCATS CANVASS Library: Counterscreen for Zika virus inhibition assay (AID 1347394); further: nearly all actives have a fitted effect of over 60% in size
- testContext: Vero 766 viability, CellTiter-Glo luminescence, 72 h; series mostly up to 46.1 µM
Inconclusive results are not listed. The source made the active and inactive calls. The call rests on the fitted dose curve; in most records, active means well fitted cell-killing curve with a large enough effect; inconclusive means small, poorly fitted or top-dose-only effect; inactive means flat fitted curve, though single readings scatter.
Possible outcomes: active, inactive

- molecule: "CO[C@H]1[C@H](O[C@H]2CC[C@]3(C=O)[C@H]4CC[C@]5(C)[C@@H](C6=CC(=O)OC6)CC[C@]5(O)[C@@H]4CC[C@]3(O)C2)O[C@H](C)[C@H](O)[C@@H]1OC"
  labelClass: "active"
- molecule: "C/C=C(\\C)C(=O)O[C@@H]1[C@@H](O)[C@@H]2O[C@H]3[C@H](O[C@@H](CCCCC)CCCCCCC(=O)CCC(=O)OC[C@@H](O2)[C@H]1OC(=O)/C=C/c1ccccc1)O[C@H](C)[C@H](OC(C)=O)[C@@H]3O"
  labelClass: "inactive"
- molecule: "CC[C@H]1CN2CCc3c([nH]c4cccc(OC)c34)[C@@H]2C[C@@H]1/C(=C\\OC)C(=O)OC"
  labelClass: "inactive"
- molecule: "c1ccc2nc3c(cc2c1)[nH]c1ccccc13"
  labelClass: "inactive"
- molecule: "CC[C@]12C=CCN3CC[C@]4(C(=C(C(=O)OC)C1)Nc1ccccc14)[C@@H]32"
  labelClass: "inactive"
- molecule: "CO[C@@H](/C=C/CC/C=C/C(=O)O)[C@@H](O)[C@H](C)/C=C(\\C)[C@H](O)[C@H](C)C(=O)CCCC1CC(=O)NC(=O)C1"
  labelClass: "inactive"
- molecule: "C/C=C1/CN2CC[C@@]34c5ccccc5N(C)[C@@H]3[C@@H]2C[C@@H]1[C@H]4C(=O)OC"
  labelClass: "inactive"
- molecule: "O[C@H]1C=C[C@@]23CCN(Cc4cc5c(cc42)OCO5)[C@@H]3C1"
  labelClass: "inactive"
- molecule: "C=C(C)[C@H]1C(=O)c2c3c(cc4c5c(n1c24)[C@@]1(C)[C@@H](CC[C@H]2[C@](C)(/C=C/C=C(\\C)C(=O)O)[C@@H](O)CC[C@@]21C)C5)C1=CC(C)(C)OC(C)(C)[C@H]1[C@@H]3O"
  labelClass: "active"
- molecule: "C/C(=C\\[C@H](C)C(=O)C[C@H](O)CC1CC(=O)NC(=O)C1)[C@@H]1OC(=O)/C=C/CC/C=C/C=C/[C@@H]1C"
  labelClass: "active"
- molecule: "COC1=C(C2=C(OC)C(=O)c3cc4c(c(O)c3C2=O)C(=O)O[C@H](C)C4)C(=O)c2c(cc3c(c2O)C(=O)O[C@H](C)C3)C1=O"
  labelClass: "inactive"
- molecule: "CC[C@@H]1CN2CCC3(Nc4cccc(OC)c4C3=O)[C@@H]2C[C@@H]1/C(=C\\OC)C(=O)OC (stereo partly drawn)"
  labelClass: "inactive"
- molecule: "C/C=C1/CN2CC[C@]34C(=C(C(=O)OC)[C@H]1C[C@H]23)Nc1ccccc14"
  labelClass: "inactive"

###

- protocolText: Cell Viability - LYMP2-015 (AID 971);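 further: cells exposed to compound for 24 h; nearly all actives have a fitted effect of over 55% in size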
- testContext: LYMP2-015 lymphoblastoid cell viability; series mostly up to 92.2 µM
Inconclusive results are not listed. Activity calls are given as the source filed them. Calls follow the shape of the dose curve; as a rule, active = well fitted cell-killing curve with a large enough effect; inconclusive = small, poorly fitted or top-dose-only effect; inactive = flat fitted curve, though single readings scatter.
Possible outcomes: active, inactive

- compound: "CCCC(=O)Cl"
  labelClass: "inactive"
- compound: "CCNc1nc(Cl)nc(NC(C)C)n1"
  labelClass: "inactive"
- compound: "CC(=O)[O-].CC(=O)[O-].O.O.O.[Pb+2]"
  labelClass: "inactive"
- compound: "C=CC(=C)C"
  labelClass: "inactive"
- compound: "CCOP(=S)(OCC)Oc1ccc([N+](=O)[O-])cc1"
  labelClass: "inactive"
- compound: "COc1ccc(N)cc1"
  labelClass: "inactive"
- compound: "CC(C)(C)OO"
  labelClass: "inactive"
- compound: "C=CCc1ccc(OC)cc1"
  labelClass: "inactive"
- compound: "C[C@]12CC[C@H]3[C@@H](CCC4=CC(=O)CC[C@@]43C)[C@@H]1CC[C@@H]2O"
  labelClass: "inactive"
- compound: "CCc1cccc(CC)c1N(COC)C(=O)CCl"
  labelClass: "active"
- compound: "Brc1ccccc1"
  labelClass: "inactive"
- compound: "[O-][Br+2]([O-])O"
  labelClass: "inactive"
- compound: "Clc1cccc(C(Cl)(Cl)Cl)n1"
  labelClass: "inactive"
- compound: "C=CC(C)=O"
  labelClass: "inactive"
- compound: "CC(Cl)Cl"
  labelClass: "inactive"
- compound: "O=C1C(Cl)=C(Cl)C(=O)C(Cl)=C1Cl"
  labelClass: "active"
- compound: "O=C(Cl)/C=C/C(=O)Cl"
  labelClass: "inactive"
- compound: "C=CCOC(=O)c1ccccc1N"
  labelClass: "inactive"
- compound: "CCCSC(=O)Cl"
  labelClass: "inactive"
- compound: "O=S1OCC2C(CO1)C1(Cl)C(Cl)=C(Cl)C2(Cl)C1(Cl)Cl (configuration not stated)"
  labelClass: "inactive"
- compound: "Cc1ccccc1N"
  labelClass: "inactive"
- compound: "C[C@H]1CCCC(=O)CCC/C=C/c2cc(O)cc(O)c2C(=O)O1"
  labelClass: "inactive"
- compound: "CCCCOCCOP(=O)(OCCOCCCC)OCCOCCCC"
  labelClass: "inactive"
- compound: "CCC[CH2][Sn]([Cl])([Cl])[Cl]"
  labelClass: "inactive"
- compound: "Clc1cc(Cl)c(-c2cc(Cl)c(Cl)cc2Cl)cc1Cl"
  labelClass: "inactive"
- compound: "BrCCBr"
  labelClass: "inactive"
- compound: "ClCBr"
  labelClass: "inactive"
- compound: "ClC(Cl)=C(c1ccc(Cl)cc1)c1ccc(Cl)cc1"
  labelClass: "inactive"
- compound: "O=NN(c1ccccc1)c1ccccc1"
  labelClass: "inactive"
- compound: "Oc1ccc(Cl)cc1Cl"
  labelClass: "inactive"
- compound: "COP(=S)(OC)Oc1ccc([N+](=O)[O-])cc1"
  labelClass: "inactive"
- compound: "NC(=S)Nc1ccccc1"
  labelClass: "inactive"
